Target: T1, recombinant human Tau monomer, 2N4R isoform (amino acids 2-441) (human, UniProt P10636-8 2-441)
T1 construct: range 2-441; N-terminal His-tag removed with TEV protease; also called monomeric Tau
T1 sequence (P10636 other isoform, or with tags, fused parts or gaps limits assumed): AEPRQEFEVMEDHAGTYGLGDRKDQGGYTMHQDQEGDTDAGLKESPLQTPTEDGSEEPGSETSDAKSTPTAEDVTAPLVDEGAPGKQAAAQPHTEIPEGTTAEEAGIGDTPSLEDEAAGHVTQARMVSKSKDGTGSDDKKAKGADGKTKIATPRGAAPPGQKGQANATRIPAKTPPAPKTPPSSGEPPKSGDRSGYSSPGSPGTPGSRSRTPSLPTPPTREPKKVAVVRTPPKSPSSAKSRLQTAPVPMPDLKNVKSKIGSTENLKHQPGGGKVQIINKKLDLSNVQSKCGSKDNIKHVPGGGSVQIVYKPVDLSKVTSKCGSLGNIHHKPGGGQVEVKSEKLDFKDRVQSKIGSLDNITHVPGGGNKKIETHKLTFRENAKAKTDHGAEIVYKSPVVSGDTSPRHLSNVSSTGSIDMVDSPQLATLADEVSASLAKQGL
Assay: SPR, captured IgG, Tau monomer analyte, 1:1 model; fit-quality column: -
Assignment: determine reported Kd for the given binders.
# value in nM; strip the unit string

Q: What value of Kd has been recorded for this entry: hu37D3.v28.B4 (antibody, V domains shown) VH: EVQLVESGGGLVQPGGSLRLSCAASGLIFRSYGMSWVRQAPGKGLEWVATINSGGTYTYYPDSVKGRFTISRDNSKNTLYLQMNSLRAEDTAVYYCANSYSGAMDYWGQGTLVTVSS VL: DDVLTQTPLSLPVTPGQPASISCRSSQSIVHSQGNTHFEWYLQKPGQSPQLLIYKVSNRFSGVPDRFSGSGSGTDFTLKISRVEAEDVGVYYCFQGSLVPWTFGQGTKVEIK
Result: 10.5

Q: Ok, now hu37D3-H9.v31.12 (antibody, V domains shown) VH: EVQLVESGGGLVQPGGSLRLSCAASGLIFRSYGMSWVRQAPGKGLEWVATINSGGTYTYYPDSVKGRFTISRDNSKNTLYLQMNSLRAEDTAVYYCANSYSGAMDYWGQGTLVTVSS VL: DDVLTQTPLSLPVTPGQPASISCRSSQSIVHSNANYYFEWYLQKPGQSPQLLIYKVSNRFSGVPDRFSGSGSGTDFTLKISRVEAEDVGVYYCFQGSLVPWTFGQGTKVEIK
Result: 41.6

Q: Ok, now hu37D3-H9.v30.6 (antibody, V domains shown) VH: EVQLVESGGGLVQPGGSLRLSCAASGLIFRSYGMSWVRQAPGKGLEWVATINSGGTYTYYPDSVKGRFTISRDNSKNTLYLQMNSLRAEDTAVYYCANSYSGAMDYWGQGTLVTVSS VL: DDVLTQTPLSLPVTPGQPASISCRSSQSIVHSPGNTYFEWYLQKPGQSPQLLIYKVSNRFSGVPDRFSGSGSGTDFTLKISRVEAEDVGVYYCFQGSLVPWTFGQGTKVEIK
Result: 19.1

Q: Ok, now hu37D3.v28.B7 (antibody, V domains shown) VH: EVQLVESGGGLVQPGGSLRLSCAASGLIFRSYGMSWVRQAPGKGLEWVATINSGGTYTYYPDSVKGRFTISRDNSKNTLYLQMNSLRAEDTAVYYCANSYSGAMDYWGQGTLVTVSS VL: DDVLTQTPLSLPVTPGQPASISCRSSQSIVHSDGNTKFEWYLQKPGQSPQLLIYKVSNRFSGVPDRFSGSGSGTDFTLKISRVEAEDVGVYYCFQGSLVPWTFGQGTKVEIK
Result: 4.1

Q: Ok, now hu37D3-H9.v31.4 (antibody, V domains shown) VH: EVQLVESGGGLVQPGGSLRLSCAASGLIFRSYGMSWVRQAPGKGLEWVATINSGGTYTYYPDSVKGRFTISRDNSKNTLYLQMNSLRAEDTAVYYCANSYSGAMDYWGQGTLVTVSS VL: DDVLTQTPLSLPVTPGQPASISCRSSQSIVHSNAPTYFEWYLQKPGQSPQLLIYKVSNRFSGVPDRFSGSGSGTDFTLKISRVEAEDVGVYYCFQGSLVPWTFGQGTKVEIK
Result: 0.8

Q: Ok, now hu37D3-H9.v31.11 (antibody, V domains shown) VH: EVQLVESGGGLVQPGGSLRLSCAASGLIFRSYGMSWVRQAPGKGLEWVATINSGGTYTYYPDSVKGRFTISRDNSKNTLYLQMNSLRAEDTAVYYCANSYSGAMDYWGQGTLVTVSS VL: DDVLTQTPLSLPVTPGQPASISCRSSQSIVHSNANFYFEWYLQKPGQSPQLLIYKVSNRFSGVPDRFSGSGSGTDFTLKISRVEAEDVGVYYCFQGSLVPWTFGQGTKVEIK
Result: 22.7

Q: Ok, now hu37D3.v28.B8 (antibody, V domains shown) VH: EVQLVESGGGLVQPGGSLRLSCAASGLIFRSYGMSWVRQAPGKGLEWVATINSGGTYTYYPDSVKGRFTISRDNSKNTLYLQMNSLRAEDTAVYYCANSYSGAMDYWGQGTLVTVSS VL: DDVLTQTPLSLPVTPGQPASISCRSSQSIVHSEGNTRFEWYLQKPGQSPQLLIYKVSNRFSGVPDRFSGSGSGTDFTLKISRVEAEDVGVYYCFQGSLVPWTFGQGTKVEIK
Result: 1.8

Q: Ok, now hu37D3-H9.v5.5 (antibody, V domains shown) VH: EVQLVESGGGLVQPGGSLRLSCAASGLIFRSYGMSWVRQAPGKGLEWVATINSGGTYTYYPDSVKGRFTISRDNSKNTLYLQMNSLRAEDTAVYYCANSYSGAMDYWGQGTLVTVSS VL: EDVLTQTPLSLPVTPGQPASISCRSSQSIVHSEGNTYFEWYLQKPGQSPQLLIYKVSNRFSGVPDRFSGSGSGTDFTLKISRVEAEDVGVYYCFQGSLVPWTFGQGTKVEIK
Result: 64.5

Q: Ok, now hu37D3-H9.v31.14 (antibody, V domains shown) VH: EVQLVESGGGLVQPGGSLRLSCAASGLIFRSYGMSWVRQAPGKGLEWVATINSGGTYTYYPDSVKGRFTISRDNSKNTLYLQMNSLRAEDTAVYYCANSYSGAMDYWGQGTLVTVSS VL: DDVLTQTPLSLPVTPGQPASISCRSSQSIVHSNANRYFEWYLQKPGQSPQLLIYKVSNRFSGVPDRFSGSGSGTDFTLKISRVEAEDVGVYYCFQGSLVPWTFGQGTKVEIK
Result: 35.5
